assayInfo: gradient 5% acetonitrile 3 min, to 50% in 2 min, to 85% in 15 min, held 3 min, 100 µL/min
testSettings: column: Zorbax Extend-C18 2.1 x 50 mm; eluents: water / acetonitrile, 0.1% formic acid
quantityName: RP-LC retention time (s)

Entry Cn1ncc(N2CCC(C(=O)NC3CCCC3)C2)cc1=O (configuration not stated) — recorded RP-LC retention time = 630

(a) COC(=O)c1ccc(C2Nc3ccc(C)cc3[C@H]3OCC[C@@H]23)cc1 (some centres not stated)
(b) CCc1noc(COC2CCCN(C(=O)NCc3ccco3)C2)n1 (configuration not stated)
Task item: Among a and b , whose measured RP-LC retention time is the smaller figure? # reply format: chosen label
Reply: b
(b: 722 s, a: 1050 s)

(a) Cc1cc(C)nc(Nc2nc(C)c3cc4c(cc3n2)OCO4)n1
(b) CC(C)[C@H](C(=O)Nc1ccc(C(=O)NO)cc1)c1ccccc1
Task item: Returns the identifier with the smallest measured RP-LC retention time among a and b . Response format: the label of the selected entry.
Reply: a
(a: 552 s, b: 791 s)

src = the METLIN SMRT retention time set (Domingo-Almenara et al. 2019)
